System: ACHN renal
Assay: NCI-60 one-dose screen, 48 h
Conditions: 10 µM unless noted
About 83,000 compounds went through this panel and 20% of them were active in at least one assay; those are over-represented in the sample as a whole. Calls of active or inactive are those of the source. Rule for the calls: active = growth percent below 10; inactive = the rest.
# valid calls are active, inactive; nothing else

Use the examples below as a reference point.
{"Molecule": "C/C(=C(/c1ccccc1)c1ccc(N2C(=O)c3cccc4c(NCc5ccccc5)ccc(c34)C2=O)cc1)c1ccccc1", "Assay Target": "ACHN renal", "Assigned Label": "inactive"}
{"Molecule": "C=C(C)[C@@H]1CC[C@]2(c3nnc(-c4ccncc4)o3)CC[C@]3(C)[C@H](CC[C@@H]4[C@@]5(C)CCC(=O)NC(C)(C)[C@@H]5CC[C@]43C)[C@@H]12", "Assay Target": "ACHN renal", "Assigned Label": "inactive"}
{"Molecule": "Cc1cc(Cl)nc(N(CCNc2ccnc3cc(Cl)ccc23)Cc2ccco2)n1", "Assay Target": "ACHN renal", "Assigned Label": "inactive"}

We next turn to a different molecule, shown below.
[Q] Any idea what this test logged for OCC12CCCC(CO)(COC1)C2O (stereo not drawn) ?
[A] inactive

====

Tested on: SK-OV-3 ovarian
Experiment: NCI-60 one-dose screen, 48 h (100 = growth as untreated, 0 = no growth, -100 = all killed)
Conditions: 10 µM unless noted
This is part of a sample that, as a whole, favours compounds with a hit. Of some 83,000 tested, about 20% had one in any assay. Calls of active or inactive are those of the source. How the source made its calls: active means growth percent below 10; inactive means the rest.
Observed Property: growth

Some molecules with known growth results, for comparison:
{"Structure Notation": "COc1cccc(-c2nn(-c3ccccc3)cc2-c2ccnc(NCCCNS(=O)(=O)c3ccc(Cl)cc3)c2)c1", "growth": "60.5% (inactive)"}
{"Structure Notation": "C=C(C)[C@@H]1CC[C@]2(CN)CC[C@]3(C)[C@H](CC[C@@H]4[C@@]5(C)CCC(=O)NC(C)(C)[C@@H]5CC[C@]43C)[C@@H]12", "growth": "92% (inactive)"}
{"Structure Notation": "C/C(=N\\Nc1cc(C)c2cc(C)ccc2n1)c1ccccn1", "growth": "25.4% (inactive)"}

[Q] Record CC1(C)C(=O)CC[C@]2(C)[C@H]3C(=O)C=C4[C@@H]5C[C@@](C)(C(=O)NCCNCCN)CC[C@]5(C)CC[C@@]4(C)[C@]3(C)CC[C@@H]12 : what is its growth with SK-OV-3 ovarian?
[A] 104% (inactive)

====

Tested on: SK-MEL-5 melanoma
Assay: NCI-60 one-dose screen, 48 h (100 = growth as untreated, 0 = no growth, -100 = all killed)
Details: 10 µM unless noted
About 83,000 compounds went through this panel and 20% of them were active in at least one assay; those are over-represented in the sample as a whole.
Lab note: compare growth with 60%, writing class 1 if less and class 0 if equal or more.

The following molecules have reported results that may help.
{"Structure Notation": "COc1ccc(NC(=O)c2ccc3c(c2)nc(-c2cc4ccccc4[nH]c2=O)n3-c2cc(C(C)(C)C)[nH]n2)cc1", "Assay Target": "SK-MEL-5 melanoma", "Assigned Label": "class 0"}
{"Structure Notation": "COc1ccc2nc(-c3c(-c4ccccc4)nc4ncccn34)[nH]c2c1", "Assay Target": "SK-MEL-5 melanoma", "Assigned Label": "class 0"}
{"Structure Notation": "O=C(NO)c1ccc(Cn2c(=O)n(CCc3ccc(O)cc3)c(=O)c3ccccc32)cc1", "Assay Target": "SK-MEL-5 melanoma", "Assigned Label": "class 1"}
{"Structure Notation": "O=C(O)c1cccc2c1C(=O)N(c1ccc3c(c1)Cc1ccccc1-3)C2=O", "Assay Target": "SK-MEL-5 melanoma", "Assigned Label": "class 0"}

[Q] Given the entry Cn1c(=O)c2c(nc(Br)n2CC(=O)Nc2ccc(F)cc2)n(C)c1=O , would its reported growth be below 60%?
[A] class 0

[Q] A record lists Nc1nc(N)c2nc3c(nc2n1)CCCCCCCCCC3 . Is its growth below 60%?
[A] class 1

[Q] Check if growth falls below 60% for CCc1cccc(CC)c1NC(=O)c1sc2nc3c(cc2c1N)CCCC3 .
[A] class 0

[Q] Is it true that growth reported for COc1ccc2c(c1)c(-c1nc(-c3c[nH]c4ncccc34)cs1)cn2CCN is less than 60%?
[A] class 0

[Q] Is growth of O=C(NO)c1ccc(Cn2c(=O)n(-c3ccccc3)c(=O)c3ccccc32)cc1 strictly below 60%?
[A] class 1

[Q] growth under 60%? Item: C[C@@H](Oc1ccc(C(=O)NS(=O)(=O)C(C)(C)C)cc1C(F)(F)F)c1ccc(Oc2ccccc2)cn1
[A] class 1
